- Test system: MALME-3M melanoma
- measurement_notes: NCI tumour cell line growth inhibition, 48 h; in the data active means GI50 below about 0.43 µM; inactive means the rest
Give your call using only these classes: True for active, False for inactive

Record excerpt, results attached:
CC(=O)Oc1cn(-c2ccc(Cl)cc2)nc1C1=NN(C(C)=O)C(c2ccc(F)cc2F)O1 (centres undefined)	False
CCn1cc(C2NC(=O)c3ccccc3N2)c2cccc(C)c21 (centres undefined)	False
CC[C@H](C)[C@H](NC(=O)C12CC(NC)(C1)C2)C(=O)N(C)[C@H](C[C@@H](OC(C)=O)c1nc(C(=O)N[C@@H](Cc2ccccc2)C[C@H](C)C(=O)OC)cs1)C(C)C	True
CCOC(=O)c1cnc2c(C)cc(C)cc2c1NCCCN(C)C	False
COC(=O)c1oc2c(C(C)=O)c(OCCN3CCOCC3)c(OC)cc2c1C	False

Record request — test call for Cc1ccc(C2CC(c3cccc(Nc4ccncc4)c3)=NN2c2cc(Cl)cc(Cl)c2)cc1 (centres undefined)
False

Record request — test call for CN1CCN(CCOc2ccc(-c3cnc4c(-c5cccc(F)c5F)cnn4c3)cc2)CC1
False

Record request — test call for O=C(O)c1ccc2nc(-c3ccc(OCCCCCOc4ccc(-c5nc6ccc(C(=O)O)cc6[nH]5)cc4)cc3)[nH]c2c1
False

Record request — test call for CC(C)c1ccc(COCc2cc(CN3CCCC3)c(O)c3ncccc23)cc1
False

###

- Test system: MCF7 breast
- measurement_notes: NCI tumour cell line growth inhibition, 48 h; in the data active means GI50 below about 0.43 µM; inactive means the rest
Give your call using only these classes: active, inactive

Record excerpt, results attached:
COc1cccc(CNCCN2C(=O)c3ccc4c5c(ccc(c35)C2=O)C(=O)N(CCNCc2cccc(OC)c2)C4=O)c1	inactive
O=S(=O)(Nc1cccc(Cl)c1)c1ccc(-c2cnc(C3CC3)o2)cc1	active
COc1ccc2c(c1)C(=Nc1ccc(F)c(F)c1F)c1c-2c(Nc2ccc(F)c(F)c2F)nc2ccccc12	inactive
Cc1ccc2c(c1)C(=O)C(c1c(-c3[nH]c(=O)c4ccc(C)cc4c3O)c(O)c3ccccc3c1O)=NC2=O	inactive
COc1cccc(C2CC(=O)c3cc(N4CCCC4)ccc3N2)c1 (stereo unspecified)	active
COc1ccc(OC)c(N(CCN2C(=O)c3ccccc3C2=O)C(=O)CCl)c1	inactive
N#Cc1cc2c(cc1Cl)SC(=Nc1ccccc1)N(S(=O)(=O)c1ccc(Cl)cc1)S2(=O)=O	inactive
COc1ccc(C(=O)N2N=C(c3ccc(Br)cc3)CC2c2cn(-c3ccccc3)nc2-c2ccccc2)cc1 (stereo unspecified)	inactive

Record request — test call for CCOC(=O)c1cnc2c(C)cc(C)cc2c1NCCCN(C)C
inactive

Record request — test call for COc1ccc2c(c1)c(-c1nonc1-c1cn(C)c3ccccc13)cn2C
active

Record request — test call for COc1cc(O)c2c3c(ccnc13)-c1ccccc1N2
inactive

###

- Tested on: HL-60(TB) leukemia
- measurement_notes: NCI tumour cell line growth inhibition, 48 h
experimental_readout: TGI

Look over these answered cases.
COc1ccc(Cc2nn(C3OC(COC(C)=O)C(OC(C)=O)C(OC(C)=O)C3OC(C)=O)c(=S)n(-c3ccc(OC)cc3)c2=O)cc1 (centres undefined)	> 100 µM
Cc1ccc(SC2=C(N(C)C)C(=O)c3ccccc3C2=O)cc1	16.9 µM
CN(N=O)C(=O)NNC(=O)N(C)N=O	> 100 µM
COc1ccccc1C=NC12CC3CC(CC(C3)C1)C2	> 100 µM
C[C@H](Nc1ccc2c(c1)OCCn1cc(N3C(=O)OC[C@H]3C(F)F)nc1-2)C(N)=O	> 100 µM
N[C@@H]1CCCC[C@@H]1N.O=P([O-])([O-])CNCP(=O)([O-])[O-].[Pt+2]	> 100 µM
CC1(C)CCCC2(C)[C@@H]1CC[C@@]13CC(=O)[C@@](C)(CC[C@@H]21)C3 (some centres undefined)	> 100 µM
NC(N)=NCCCC(NC(=O)OCCCCCn1ccc(N)nc1=O)C(=O)O (centres undefined)	> 100 µM
C(=C\c1cc(CCc2nc3ccccc3[nH]2)[nH]n1)/c1ccccc1	> 100 µM
Cn1ccnc1C(=O)/C=C/c1ccc(C(=O)Nc2ccc(F)cc2)cc1	3.12 µM

Entry under test: COc1ccc2cnc(N)c(C#Cc3cc(C(=O)Nc4ccc(CN5CCN(C)CC5)c(C(F)(F)F)c4)cnc3C)c2c1 . Its TGI was > 50 µM

Entry under test: CCOC(=O)COc1ccc(OC)c2c1C(=O)CCC2 . Its TGI was > 100 µM

Entry under test: O=C(Nc1nc(=S)[nH][nH]1)C(=O)C1C(=O)Nc2ccccc2S1=O (centres undefined) . Its TGI was > 100 µM

Entry under test: O=C(c1ccccc1)N(C(=S)NCCc1ccc(Cl)cc1)c1ccc(Cl)cc1 . Its TGI was > 100 µM

Entry under test: O=C1c2ccccc2C(=O)c2[nH]c(Cc3ccccc3F)nc21 . Its TGI was > 100 µM

###

Quick list: TGI per entry.
- System: SK-MEL-28 melanoma
- measurement_notes: NCI tumour cell line growth inhibition, 48 h

Look over these answered cases.
CCc1n[nH]c(=S)n1/N=C/c1ccc(-c2ccc([N+](=O)[O-])cc2)o1	> 100 µM
N/N=C(\CCN1CCCC1)CC(c1ccccc1)c1c(O)c2ccccc2oc1=O (stereo not given)	> 100 µM
Nc1ncnc2c1ncn2C1OC(CSC(F)F)C(O)C1O (stereo not given)	> 100 µM

Note: attention shifts to another entry.
Entry under test: CC(C)N(C(=O)C12C3(C(=O)OC(C)(C)C)C4C5(C#N)C3C1(C(=O)OC(C)(C)C)C5C42C(=O)OC(C)(C)C)C(C)C (stereo not given) . Its TGI was > 100 µM

###

- Test system: SNB-19 CNS
- measurement_notes: NCI tumour cell line growth inhibition, 48 h
experimental_readout: GI50

Look over these answered cases.
Cc1cc(Cl)ccc1Nc1nc(C(F)(F)F)ccc1C(=O)N/N=C/c1cccc(O)c1	2.37 µM
COc1ccccc1NC(=O)c1ccc(NC2=C(Cl)C(=O)N(Cc3ccccc3)C2=O)cc1	48.9 µM
O=C1/C(=C/c2ccc(Cl)cc2Cl)CN(S(=O)(=O)c2ccccc2)C/C1=C\c1ccc(Cl)cc1Cl	0.496 µM
Cn1ccnc1C(=O)/C=C/c1ccc(C(=O)Nc2ccc(F)cc2)cc1	1.36 µM

Entry under test: O=S(=O)(Nc1cccc(Cl)c1)c1ccc(-c2cnc(C3CC3)o2)cc1 . Its GI50 was 1.31 µM

Entry under test: O=C(O)c1ccc2nc(-c3ccc(OCCCCCOc4ccc(-c5nc6ccc(C(=O)O)cc6[nH]5)cc4)cc3)[nH]c2c1 . Its GI50 was > 100 µM

###

- Test system: SK-MEL-5 melanoma
- measurement_notes: NCI tumour cell line growth inhibition, 48 h
experimental_readout: TGI (µM)
Please respond with the number in µM and leave the unit unwritten.

C[n+]1c2ccccc2c2/c(=C\C#N)c3ccccc3n21	61.3
Oc1ccc(-c2nc3ccc(F)cc3s2)cc1	38
C=C1CC[C@@H]2C(C)(C)[C@H](O)CC[C@@]2(C)[C@@H]1COc1ccc2ccc(=O)oc2c1	37
CCOC(=O)c1cnc2c(C)cc(C)cc2c1NCCCN(C)C	16.5
CN(C)c1ccc2nc3ccc(=[N+](C)C)c([N+](=O)[O-])c-3sc2c1	12.1

Entry under test: O=C(NC(N1CCN(c2cc3c(cc2F)c(=O)c(C(=O)O)cn3C2CC2)CC1)(C(F)(F)F)C(F)(F)F)c1ccccc1 . Its TGI was 62.9

Entry under test: COc1cccc(CNCCN2C(=O)c3ccc4c5c(ccc(c35)C2=O)C(=O)N(CCNCc2cccc(OC)c2)C4=O)c1 . Its TGI was 2.86

Entry under test: COc1cc(O)c2c3c(ccnc13)-c1ccccc1N2 . Its TGI was 12.5

Entry under test: c1ccc(CNc2ccc3[nH]c4cnccc4c3c2)cc1 . Its TGI was 30.2

Entry under test: CCOC(=O)/C=C(\C)Sc1cc(O)c2ccccc2c1O . Its TGI was 26.6

Entry under test: O=C1CC(Cl)c2c1csc2Br (stereo not drawn) . Its TGI was 30.6

Entry under test: COC(=O)c1ccc2[nH]c(O)c(C(=Nc3ccc(N(C)C(=O)CN4CCN(C)CC4)cc3)c3cccc(OC)c3)c2c1 . Its TGI was 2.78

Entry under test: C[C@]12OC(=O)[C@]3(O)CC[C@H]4[C@@H](C[C@@H](O)[C@@]5(Cl)CC=CC(=O)[C@]45C)[C@]45OCC6C(=O)O[C@@H]1C[C@@]6(C)[C@H](C4=O)[C@@]32O5 (stereo partly drawn) . Its TGI was 13.2

Entry under test: COc1cc(/C=N/NC(=O)c2c(Cl)c(Cl)c(Cl)c(Cl)c2-c2nc3ccccc3[nH]2)ccc1O . Its TGI was 34.2

Entry under test: O=S(=O)(Nc1cccc(Cl)c1)c1ccc(-c2cnc(C3CC3)o2)cc1 . Its TGI was 14.4

Entry under test: CCOc1cc2ncc(C#N)c(Nc3ccc(F)c(Cl)c3)c2cc1NC(=O)CC1CCSS1 (stereo not drawn) . Its TGI was 7.23

Entry under test: c1ccc(-c2ccc(-c3ccc(C4=NCCN4)cc3)o2)cc1 . Its TGI was 3.92
